ASSAYED SYSTEM: furin, P09958;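 also: purified furin at 1:10 enzyme:substrate in 50 mM HEPES pH 7.5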
Sequence (P09958 whole entry): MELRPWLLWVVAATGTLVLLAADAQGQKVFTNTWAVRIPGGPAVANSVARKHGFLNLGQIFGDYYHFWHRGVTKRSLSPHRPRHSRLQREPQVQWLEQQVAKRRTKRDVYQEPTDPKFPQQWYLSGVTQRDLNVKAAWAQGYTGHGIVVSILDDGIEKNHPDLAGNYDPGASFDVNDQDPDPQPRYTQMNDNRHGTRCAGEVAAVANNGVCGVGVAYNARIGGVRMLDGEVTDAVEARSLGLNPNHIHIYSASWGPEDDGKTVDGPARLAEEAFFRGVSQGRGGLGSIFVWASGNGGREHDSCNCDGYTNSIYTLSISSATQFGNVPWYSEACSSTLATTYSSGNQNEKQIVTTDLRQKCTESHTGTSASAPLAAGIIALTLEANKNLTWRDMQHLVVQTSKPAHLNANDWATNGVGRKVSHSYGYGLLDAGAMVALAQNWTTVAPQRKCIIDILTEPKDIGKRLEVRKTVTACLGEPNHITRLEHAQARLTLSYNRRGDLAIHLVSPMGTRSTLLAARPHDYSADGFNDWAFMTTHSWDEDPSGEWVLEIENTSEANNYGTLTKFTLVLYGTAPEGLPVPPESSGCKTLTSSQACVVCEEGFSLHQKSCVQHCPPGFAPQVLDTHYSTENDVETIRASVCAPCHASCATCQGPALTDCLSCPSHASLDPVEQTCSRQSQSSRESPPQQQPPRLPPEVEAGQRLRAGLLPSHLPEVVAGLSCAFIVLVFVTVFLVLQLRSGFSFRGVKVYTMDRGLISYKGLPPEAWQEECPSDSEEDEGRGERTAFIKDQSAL
TEST METHOD NOTES: furin cleavage Z-score vs untreated control; higher = more cleavage, active = 3.5 or more, inactive = 1 or less, 8 variable residues between constant flanks
PARTICULARS: 30 min
The other results are listed elsewhere or left out. How many sequences the whole screen found active is unknown.
Use MET when the recorded furin cleavage Z-score is no lower than 4; use NOT MET when it is lower.

# example entries with known answers
CAREKKSNSPAGNASASA [FS-2006] : NOT MET
CARAPRSSSQAGNASASA [FS-3147] : NOT MET
CAREKRAAEQAGNASASA [FS-1850] : MET
CAREKRAKIKAGNASASA [FS-2207] : NOT MET
CAREKRSISDAGNASASA [FS-1889] : MET
CARFARMIEQAGNASASA [FS-2257] : NOT MET

Let's switch to this sequence now.
Query: Hello, I need to know if CARERRGREQAGNASASA [FS-1697] has measured furin cleavage Z-score not below 4. Thanks!
Result: NOT MET

FYI, the data here is from the supplement of paper PMC3545927.
